- target or test system: T1, human MAdCAM expressed on cells (human, UniProt Q13477 19-382)
- T1 construct: whole, on cells; also called MADCAM1
- T1 sequence (looked up): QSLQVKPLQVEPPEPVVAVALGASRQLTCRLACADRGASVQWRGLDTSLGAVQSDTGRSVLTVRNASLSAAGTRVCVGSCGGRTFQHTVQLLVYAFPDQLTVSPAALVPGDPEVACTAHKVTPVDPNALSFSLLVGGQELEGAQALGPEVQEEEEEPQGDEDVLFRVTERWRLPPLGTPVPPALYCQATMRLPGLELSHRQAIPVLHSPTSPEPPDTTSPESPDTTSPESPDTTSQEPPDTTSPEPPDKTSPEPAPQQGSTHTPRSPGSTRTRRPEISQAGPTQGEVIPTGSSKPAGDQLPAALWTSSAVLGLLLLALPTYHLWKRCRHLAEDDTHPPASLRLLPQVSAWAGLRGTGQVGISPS
- test summary: cell binding
measured metric: binding result

binder | measured metric | result
MAdCAM antibody Clone ID 33 of Table 6 (scFv) (scFv) scFv: QVQLVQSGAEVKKPGASVKVSCKASGYTFTSYGISWVRQAPGQGLEWMGWMHPKSGDTGLTQKFQGRVTMTRDTSTSTVYMELSSLRSEDTAVYYCARDTPYYYYGMDVWGQGTTVTVSSGGGGSGGGGSGGGGSGGGGSDIQMTQSPSSLSASVGDRVTITCRASQSISSWLAWYQQKPGKAPKLLIYAASSLQSGVPSRFSGSGSGTDFTLTISSLQPEDFATYYCQQSYSVPITFGQGTKVEIK | binding result | binds
MAdCAM antibody Clone ID 16 of Table 6 (scFv) (scFv) scFv: EVQLLESGGGLVQPGGSLRLSCAASGFTFEDYAMHWVRQAPGKGLEWVSYLNSDGGSTSYADSVKGRFTISRDNSKNTLYLQMNSLRAEDTAVYYCAKDYCTNGVCAFDYWGQGTLVTVSSGGGGSGGGGSGGGGSGGGGSDIQMTQSPSSLSASVGDRVTITCRASQSISTYLNWYQQKPGKAPKLLIYDASNLETGVPSRFSGSGSGTDFTLTISSLQPEDFATYYCQQSYTIPITFGQGTRLEIK | binding result | binds
MAdCAM antibody Clone ID 32 of Table 6 (scFv) (scFv) scFv: QVQLVQSGAEVKKPGASVKVSCKASGYTLTDYYMHWVRQAPGQGLEWMGIINPSGGSTSYAQKFQGRVTMTRDTSTSTVYMELSSLRSEDTAVYYCAREEYSSSSGYFDYWGQGTLVTVSSGGGGSGGGGSGGGGSGGGGSDIQMTQSPSSLSASVGDRVTITCRASQGISSWLAWYQQKPGKAPKLLIYAASSLQSGVPSRFSGSGSGTDFTLTISSLQPEDFATYYCQQSYSTPLTFGQGTKVEIK | binding result | binds
